- assayProtocol: amyloid nucleation score (Sup35N fusion, yeast selection) (log enrichment); library NNK1; higher = more nucleation; inactive = no reads after selection;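 note: zero at mode of non-aggregating sequences after 7 days selection at 30°C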
Note to self: values exactly at 0.5 are Yes. So amyloid nucleation score at or above 0.5 is Yes, below is No.

Study these solved cases before continuing.
LAVTFQGIGFSYSILHITTY = No
VFWVNFLFYYGSLLHSKGV = No
DPDHGPFQNNVWQRRPRWSH = No
QCSCSKWLAIRDWDGSSKMK = No
IYGGYEK = Yes

Decide: is the reported value of amyloid nucleation score for YSINTCCQLVIIDPGSSYEM equal to or greater than 0.5?
Yes

Does amyloid nucleation score meet or surpass 0.5 for SYLTWDHLEVNLCTYSILGR ?
No

Is reported amyloid nucleation score greater than or equal to 0.5 here: YGEHWSS
Yes

Answer whether amyloid nucleation score of WFRYYYLFNRVRTFRERTNF is greater than or equal to 0.5.
No

hey, is amyloid nucleation score for this one >= 0.5? TNRKIQSLPTVCVCIRGSSG
Yes

Decide: is the reported value of amyloid nucleation score for LVGRRGYFSLVWVPGMSFMR equal to or greater than 0.5?
No

Does the substance RVEVSGVLALANPLVPF have recorded amyloid nucleation score that is 0.5 or more?
Yes
